# target-desc: Adenosine receptor A3 (Homo sapiens)
# Sequence (P0DMS8 whole entry): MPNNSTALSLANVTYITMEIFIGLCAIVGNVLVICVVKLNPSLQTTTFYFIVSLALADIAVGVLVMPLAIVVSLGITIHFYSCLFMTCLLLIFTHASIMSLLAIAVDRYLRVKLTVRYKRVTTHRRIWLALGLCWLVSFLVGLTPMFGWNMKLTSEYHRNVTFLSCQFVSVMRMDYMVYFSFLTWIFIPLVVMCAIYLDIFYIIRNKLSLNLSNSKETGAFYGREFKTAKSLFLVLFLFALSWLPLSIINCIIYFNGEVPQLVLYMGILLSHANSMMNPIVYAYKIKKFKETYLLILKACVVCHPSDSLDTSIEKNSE
# merged literature set: pKi with Adenosine receptor A3 (Homo sapiens)
Please treat pKi as minus the base-10 logarithm of the molar concentration.

molecule `COc1ccc(-c2cc3cccc(OC)c3oc2=O)cc1` , pKi observed: 5.30

Noted for `CNC(=O)[C@H]1O[C@@H](n2cnc3c(NCc4cc(OC)ccc4OC)ncnc32)[C@H](O)[C@@H]1N` : its pKi reads 6.80

According to the records, this molecule `CCOC(=O)c1nc(NC(=O)c2ccccc2)nc2nn(C(C)C)cc12` displays pKi of 5.07

Documented pKi of `O=P(O)(OC[C@@]12C[C@@H]1[C@@H](n1cnc3c(O)ncnc31)[C@H](O)[C@@H]2O)OP(=O)(O)OC[C@@]12C[C@@H]1[C@@H](n1cnc3c(O)ncnc31)[C@H](O)[C@@H]2O` : 4.66

Query `CCNC(=O)[C@H]1O[C@@H](n2cnc3c(Nc4ccc(OCC(=O)Nc5ccc(F)cc5)cc4)ncnc32)[C@H](O)[C@@H]1O` yields pKi of 7.14

Briefly, pKi measured for `CC(C)CCn1cc2c(nc(NC(=O)Cc3cccc(Cl)c3)n3nc(-c4ccco4)nc23)n1` : 6.56

Sure, the documented pKi for `Cc1cccc(C(=O)Nc2nc3ccccc3c3cn(-c4ccccc4)nc23)c1` is 8.20

Per the record, `CCCn1c(=O)c2[nH]c(-c3cnn(Cc4cc(-c5ccccc5)on4)c3)nc2n(CCC)c1=O` has pKi of 5.74

###

# target-desc: Adenosine receptor A3 (Homo sapiens)
# Sequence (P0DMS8 whole entry): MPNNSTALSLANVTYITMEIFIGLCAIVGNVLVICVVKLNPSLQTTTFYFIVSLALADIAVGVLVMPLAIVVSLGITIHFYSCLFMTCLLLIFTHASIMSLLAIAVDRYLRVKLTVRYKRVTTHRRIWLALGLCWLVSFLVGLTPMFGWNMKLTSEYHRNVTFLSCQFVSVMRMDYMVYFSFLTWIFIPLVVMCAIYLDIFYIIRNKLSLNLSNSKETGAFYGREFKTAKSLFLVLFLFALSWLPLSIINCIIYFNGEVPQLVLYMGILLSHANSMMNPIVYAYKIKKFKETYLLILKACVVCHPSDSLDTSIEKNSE
// compounds with log10(Ki) on Adenosine receptor A3 (Homo sapiens), multi-source literature
All values: base-10 log of Ki in nM.

So the reported log10(Ki) for `CCCCCCCCn1cc2c(nc(NC(=O)NC3CCCCC3)n3nc(-c4ccco4)nc23)n1` , on Adenosine receptor A3 (Homo sapiens), turned out to be 1.21

Considering `c1ccc(Sc2nc3ncnc-3c(NC3CCCCC3)[nH]2)cc1` , its log10(Ki) with Adenosine receptor A3 (Homo sapiens) was recorded as 2.13

Observed log10(Ki), Adenosine receptor A3 (Homo sapiens), `CCNC(=O)[C@H]1O[C@@H](n2cnc3c(Nc4ccc(OCC(=O)NC5CCCCC5)cc4)nc(Cl)nc32)[C@H](O)[C@@H]1O` : 1.98

The value of log10(Ki) recorded for `CCCCn1c(=O)[nH]c2nc(-c3cnn(Cc4cccc(F)c4)c3)[nH]c2c1=O` when tested on Adenosine receptor A3 (Homo sapiens) reads 2.43

The reported log10(Ki) value, Adenosine receptor A3 (Homo sapiens), for `CCCn1c(=O)[nH]c2nc(-c3ccc(Br)cc3)[nH]c2c1=O` reads 2.24

Entry `CC(=O)Nc1cc(-c2ccc(OC(F)(F)F)cc2)nc(-c2ccc(OC(F)(F)F)cc2)n1` ; assay system Adenosine receptor A3 (Homo sapiens); log10(Ki) recorded at 2.59

Assay Adenosine receptor A3 (Homo sapiens), sample `CCc1nc2c([nH]1)c1nc(CC)[nH]c1c1nc(CC)[nH]c21` , log10(Ki) read: 2.02

###

Adenosine receptor A3 (Homo sapiens) pKi, compiled from various sources.
Hey, just a heads up that pKi is the negative log base 10 of the concentration in molar.

// returns pKi for `COc1ccc(-n2cc3nc(-c4ccccc4)nc(N)c3n2)cc1` with Adenosine receptor A3 (Homo sapiens); value = 7.12

pKi for Adenosine receptor A3 (Homo sapiens) with input CCNC(=O)[C@H]1OC(n2cnc3c(NCCNc4ccc([N+](=O)[O-])c5nonc45)ncnc32)[C@H](O)[C@@H]1O (stereo partly specified) equals 7.25

Field pKi (Adenosine receptor A3 (Homo sapiens)), entry `COc1cnc(N2CCOCC2)c2sc(NC(=O)C(C)(C)Oc3ccc(F)cc3)nc12` : 6.40

Observed pKi, Adenosine receptor A3 (Homo sapiens), `Nc1nc2cnn(CCCc3ccccc3)c2c2nc(-c3ccco3)nn12` : 6.10

Record `CCOC(=O)c1cnc(NCc2ccc(OC)cc2)n2nc(-c3ccco3)nc12` ; system Adenosine receptor A3 (Homo sapiens); pKi = 7.24

Per the reported Adenosine receptor A3 (Homo sapiens) data, `O=C(Nc1nc2ccccc2c2cn(-c3ccc(Cl)cc3)nc12)c1ccco1` has pKi of 7.94

Record CCn1nnc([C@H]2O[C@@H](n3cnc4c(N)nc(NC(C)Cc5ccc(C(F)(F)F)cc5)nc43)[C@H](O)[C@@H]2O)n1 (mixture of isomers) / Adenosine receptor A3 (Homo sapiens), pKi recorded as 6.64

Given the compound `O=C(O)CCCC(=O)Nc1nc2ccc(Cl)cc2c2nc(-c3ccco3)nn12` and test system Adenosine receptor A3 (Homo sapiens), the measured pKi is 7.09

Fill in: Adenosine receptor A3 (Homo sapiens) pKi for CCNC(=O)[C@H]1OC(n2cnc3c(NCCCCNc4ccc([N+](=O)[O-])c5nonc45)ncnc32)[C@H](O)[C@@H]1O (stereo partly specified) = 6.42

Record `O=[N+]([O-])c1ccc(Nc2nc3c(N4CCCC4)ncnc3s2)cc1` has Adenosine receptor A3 (Homo sapiens) pKi equal to 5.44

Bench note, Adenosine receptor A3 (Homo sapiens): entry `O=c1oc2c(O)c(O)ccc2cc1-c1ccc(O)cc1` , its pKi = 5.04

Let me check: `Nc1cccc(CNC(=O)c2cc(-c3ccco3)nc(N)n2)n1` , system Adenosine receptor A3 (Homo sapiens), measured pKi is 5.83

# `Nc1nc(NCc2cccs2)nc2sc(-c3cccs3)nc12` with Adenosine receptor A3 (Homo sapiens): pKi is 7.42

The measured pKi that `CCC(=O)Nc1nc(-c2ccccc2)n[nH]1` showed for Adenosine receptor A3 (Homo sapiens) is 6.52

Record `Cc1ccc(-c2cc(=O)c3c(C)c(C)c(C)cc3o2)cc1` has Adenosine receptor A3 (Homo sapiens) pKi equal to 5.35

Readout pKi for `CCOC(=O)c1cnc(NC(=O)Cc2ccccc2)n2nc(-c3ccco3)nc12` , test system Adenosine receptor A3 (Homo sapiens), was 5.59

So the reported pKi for `CCOC(=O)c1nn2c(=O)[nH]c3ccccc3c2c1C(=O)OCC` , on Adenosine receptor A3 (Homo sapiens), turned out to be 7.00

Readout pKi for `O=C(Nc1nccn2cc(-c3ccccc3)nc12)C(c1ccccc1)c1ccccc1` , test system Adenosine receptor A3 (Homo sapiens), was 6.61

###

Please find below log10(Ki) measurements for Adenosine receptor A3 (Homo sapiens, UniProt P0DMS8), combined from several publications.
// units: nM (pre-log); metric: Ki; scale: log10

So the reported log10(Ki) for `Nc1nc(Cl)nc2c1ncn2[C@H]1[C@H](O)[C@H](O)[C@]2(CCl)C[C@H]12` , on Adenosine receptor A3 (Homo sapiens, UniProt P0DMS8), turned out to be 2.40

Known value: Adenosine receptor A3 (Homo sapiens, UniProt P0DMS8) log10(Ki) of the compound `Cc1ccc2ncc3nc(-c4ccccc4)nn3c2c1` equals 1.38

Measured on Adenosine receptor A3 (Homo sapiens, UniProt P0DMS8), `C#CCn1c(=O)c2c(nc3[nH]c(C)cn32)n(Cc2ccccc2)c1=O` has a documented log10(Ki) of 1.18

Short answer on Adenosine receptor A3 (Homo sapiens, UniProt P0DMS8) for `CCOC(=O)c1cnc(NC2CCCC2)n2nc(-c3ccco3)nc12` , log10(Ki): 1.54

Form field log10(Ki) for item `CCOc1ccc(-c2cc(NC(C)=O)nc(-c3ccc(OCC)cc3)n2)cc1` on Adenosine receptor A3 (Homo sapiens, UniProt P0DMS8): 1.60

GET /values?item= `CCCn1c(=O)c2[nH]c(-c3cnn(Cc4cc(-c5ccc(OC)cc5)on4)c3)nc2n(CCC)c1=O` &system= Adenosine receptor A3 (Homo sapiens, UniProt P0DMS8) returns log10(Ki): 3.48

Per the reported Adenosine receptor A3 (Homo sapiens, UniProt P0DMS8) data, `CCOc1nc(N)c2ncn([C@@H]3O[C@H](CO)[C@@H](O)[C@H]3O)c2n1` has log10(Ki) of 2.75

# lookup: `COc1ccc(-n2cc3nc(C)nc(NC(=O)c4ccco4)c3n2)cc1` on Adenosine receptor A3 (Homo sapiens, UniProt P0DMS8), log10(Ki) = 1.65

Form: item `Nc1nc(-c2ccc(CO)cc2)nc2sc(-c3ccco3)nc12` ; test system Adenosine receptor A3 (Homo sapiens, UniProt P0DMS8); log10(Ki): 0.55

The observed log10(Ki) for `Cc1ccc(-c2nc(N)c3nn(Cc4ccccc4O)cc3n2)o1` when tested with Adenosine receptor A3 (Homo sapiens, UniProt P0DMS8) stands at 2.09

With Adenosine receptor A3 (Homo sapiens, UniProt P0DMS8) as the test system, `CCOC(=O)c1nc(NC(=O)Cc2ccccc2)nc2nn(C(C)C)cc12` showed log10(Ki) of 4.12

Summary line: `O=[N+]([O-])c1cc(NCc2cccc(I)c2)c2ncn([C@@H]3O[C@H](CO)[C@@H](O)[C@H]3O)c2n1` , Adenosine receptor A3 (Homo sapiens, UniProt P0DMS8), reported log10(Ki) = 0.99

Adenosine receptor A3 (Homo sapiens, UniProt P0DMS8) assay, compound `CCn1c(=O)[nH]c2nc(-c3ccccc3)[nH]c2c1=O` , recorded log10(Ki) = 2.98

Given the compound `CC(C)CCn1cc2c(nc(NC(=O)Cc3ccc(C(F)(F)F)cc3)n3nc(-c4ccco4)nc23)n1` and test system Adenosine receptor A3 (Homo sapiens, UniProt P0DMS8), the measured log10(Ki) is 2.42

Entry `N[C@@H]1[C@@H](O)[C@H](n2cnc3c(NC4CCCC4)ncnc32)O[C@@H]1CO` , tested on Adenosine receptor A3 (Homo sapiens, UniProt P0DMS8), has a reported log10(Ki) of -0.27

Summary line: `COc1cc(O)ccc1-c1cn2c(=O)n(-c3ccccc3)nc2c(N)n1` , Adenosine receptor A3 (Homo sapiens, UniProt P0DMS8), reported log10(Ki) = 4.05

# log10(Ki) measured on Adenosine receptor A3 (Homo sapiens, UniProt P0DMS8) for item `COc1ccc(-c2nc3c4cn(C)nc4nc(N)n3n2)cc1` = 1.22

# `O=C(Nc1nc(-c2ccccc2)nc2cn(-c3ccccc3)nc12)c1ccccc1` with Adenosine receptor A3 (Homo sapiens, UniProt P0DMS8): log10(Ki) is 1.30

Value (log10(Ki), Adenosine receptor A3 (Homo sapiens, UniProt P0DMS8)) for record `CCCCC#Cc1nc(NCc2cccc(Br)c2)c2ncn([C@@H]3OC[C@@H](O)[C@H]3O)c2n1` = 1.83
